Test: melting temperature; fluorescence melt of hairpins on a sequencing array, two-state fit, raised by 9.35 °C to match UV melts
Details: sodium 0.088 M
Assign Tm to each entry below.
Kindly answer with a numeric value in °C, unit omitted.

Qu. State its Tm for this sequence: GCTAACGAAAGTTTAGC ((((((....))).)))
Ans. 46.9

Qu. State its Tm for this sequence: GTCGTCGAAAGACAGAC ((((((....))).)))
Ans. 51.6

Qu. State its Tm for this sequence: GCGGTGTTCCGC ((((....))))
Ans. 65.7

Qu. State its Tm for this sequence: GGATTAGGAAACTAATCC (((((((....)))))))
Ans. 55

Qu. State its Tm for this sequence: GTGTGACGAAAGTCCAC (((.(((....))))))
Ans. 52.3

Qu. State its Tm for this sequence: GATCATAGTCATGATC ((((((....))))))
Ans. 47.2

Qu. State its Tm for this sequence: GACGCCACGAAAGTGGTC (((..(((....))))))
Ans. 32.1

Qu. State its Tm for this sequence: GCTAGACGAAAGTCCAGC (((.(((....))).)))
Ans. 47.6

Qu. State its Tm for this sequence: GCGTCTGCGAAAGCACGC (((..(((....))))))
Ans. 52.3

Qu. State its Tm for this sequence: GCGTTTTTACGC ((((....))))
Ans. 55.2

Qu. State its Tm for this sequence: GCTTCGCGAAAGCGGCGC ((..(((....)))..))
Ans. 51.9

Qu. State its Tm for this sequence: GAAGACGAAAGTCAATTC ((((((....)))..)))
Ans. 32.9

Qu. State its Tm for this sequence: GGTAGGTCGAAAGACACC (((..(((....))))))
Ans. 35.3

Qu. State its Tm for this sequence: GCGGATCTCCGC ((((....))))
Ans. 59.6

Qu. State its Tm for this sequence: GGATGCGAAAGCAATCC ((((((....))).)))
Ans. 57.9

Qu. State its Tm for this sequence: GATCGAAGCGTCGATC ((((((....))))))
Ans. 51.1

Qu. State its Tm for this sequence: GCTTCCGCGAAAGCGAGC (((..(((....))))))
Ans. 35.5

Qu. State its Tm for this sequence: GCGGAGCGAAAGCTGAGC ((..(((....)))..))
Ans. 56.5

Qu. State its Tm for this sequence: GCGTGGCGAAAGCCTAGC ((..(((....)))..))
Ans. 59.5

Qu. State its Tm for this sequence: GCGTTCGAAAGAAGCCGC ((((((....)))..)))
Ans. 35.9

Qu. State its Tm for this sequence: GCGAAAGTTCGC ((((....))))
Ans. 47.2

Qu. State its Tm for this sequence: CGCGGACGATCCGCG ((((((...))))))
Ans. 63.2

Qu. State its Tm for this sequence: GTTTTCGGAAACGAAAGC (.(((((....))))).)
Ans. 44.4

Qu. State its Tm for this sequence: GATCTCTAGGAGATC ((((((...))))))
Ans. 52.9

Qu. State its Tm for this sequence: GAAGGTGGAAACATCTTC ((((.((....)).))))
Ans. 41.6

Qu. State its Tm for this sequence: GATCTTCTCAAAGATC ((((((....))))))
Ans. 45.2

Qu. State its Tm for this sequence: GCTGTTGGAAACAATGGC ((..(((....)))..))
Ans. 39.9

Qu. State its Tm for this sequence: GATCTCTTTAGAGATC ((((((....))))))
Ans. 61.8

Qu. State its Tm for this sequence: GATCAGCTGTCTGATC ((((((....))))))
Ans. 50.3

Qu. State its Tm for this sequence: GATATGCCGAAAGGCATC (((..(((....))))))
Ans. 38.5

Qu. State its Tm for this sequence: GATGCCGAAAGGCGGATC ((((((....)))..)))
Ans. 40.5

Qu. State its Tm for this sequence: GTGCTCGCGAAAGCGCAC (((..(((....))))))
Ans. 49.2

Qu. State its Tm for this sequence: CGCAAACGGAAACGTGCG (((..(((....))))))
Ans. 50.9

Qu. State its Tm for this sequence: GGAATTCGAAAGAAGTCC (((.(((....))).)))
Ans. 49.2

Qu. State its Tm for this sequence: GCCGTACGAAAGTATGGC (((.(((....))).)))
Ans. 61.4

Qu. State its Tm for this sequence: GTCCATGGAAACATGGGC (.(((((....))))).)
Ans. 54

Qu. State its Tm for this sequence: GGGATTTCGAAAGAACCC (((..(((....))))))
Ans. 30.3

Qu. State its Tm for this sequence: GGGCATCGAAAGATCCCC (((.(((....))).)))
Ans. 48.9

Qu. State its Tm for this sequence: GCCACCGAAAGGTCGGC ((((((....))).)))
Ans. 59

Qu. State its Tm for this sequence: GAGACCGAAAGGTAACTC ((((((....)))..)))
Ans. 39.7

Qu. State its Tm for this sequence: GGATGGGGAAACCCACCC ((.((((....)))).))
Ans. 45.1

Qu. State its Tm for this sequence: GCCAAGGGAAACCTTAGC ((.((((....)))).))
Ans. 33.2

Qu. State its Tm for this sequence: GATCACTAGCGTGATC ((((((....))))))
Ans. 55.1

Qu. State its Tm for this sequence: GCCCACGGAAACGCGGGC ((((.((....)).))))
Ans. 62.3

Qu. State its Tm for this sequence: GGCTCGGGAAACCGGGCC (((.(((....))).)))
Ans. 66

Qu. State its Tm for this sequence: GATCCTTATGAGGATC ((((((....))))))
Ans. 53.3

Qu. State its Tm for this sequence: GCTACCACGAAAGTGAGC (((..(((....))))))
Ans. 33.3

Qu. State its Tm for this sequence: GGGTGTCGAAAGACCCC (((.(((....))))))
Ans. 56.4

Qu. State its Tm for this sequence: GTCCCCCCGAAAGGGGAC (((..(((....))))))
Ans. 59.5

Qu. State its Tm for this sequence: GGCACCACGAAAGTGGCC (((..(((....))))))
Ans. 38.1

----------
Assay: melting temperature; fluorescence melt of hairpins on a sequencing array, two-state fit, raised by 9.35 °C to match UV melts
Details: sodium 0.088 M
Observation type: Tm (°C)
Kindly answer with a numeric value in °C, unit omitted.

Qu. State its Tm for this sequence: GATCAATTGCTTGATC ((((((....))))))
Ans. 43.5

Qu. State its Tm for this sequence: GTCGTAGGAAACTATGAC (((.(((....))).)))
Ans. 45.2

Qu. State its Tm for this sequence: GATCAAGCCGTTGATC ((((((....))))))
Ans. 46.5

Qu. State its Tm for this sequence: GATCCAGACATGGATC ((((((....))))))
Ans. 58

Qu. State its Tm for this sequence: GCATGGCGAAAGCCACGC ((.((((....)))).))
Ans. 60.9

Qu. State its Tm for this sequence: GTCGTGCCGAAAGGCGAC (((..(((....))))))
Ans. 44.6

Qu. State its Tm for this sequence: GCGGGATGCCGC ((((....))))
Ans. 55.8

Qu. State its Tm for this sequence: GCACCCCCGAAAGGGTGC (((..(((....))))))
Ans. 66.6

Qu. State its Tm for this sequence: CGCAGCGGAAACGCAGCG (((.(((....))).)))
Ans. 68.5

Qu. State its Tm for this sequence: GCGTAGAAATACGC (((((....)))))
Ans. 55.2

Qu. State its Tm for this sequence: GTCCATCGAAAGATAGAC (((.(((....))).)))
Ans. 35.2

Qu. State its Tm for this sequence: GCGGTGACCCGC ((((....))))
Ans. 55.3

Qu. State its Tm for this sequence: GATCTCCTCAGAGATC ((((((....))))))
Ans. 55.9

Qu. State its Tm for this sequence: GCCGACGAAAGTCGAGGC ((((((....)))..)))
Ans. 59.5

Qu. State its Tm for this sequence: GTTAACCGAAAGGTAAC (((.(((....))))))
Ans. 40.8

Qu. State its Tm for this sequence: GCCTTAGGAAACCAAGGC (((((.(....).)))))
Ans. 45.2

Qu. State its Tm for this sequence: GGAACTGGAAACAGTTTC (.(((((....))))).)
Ans. 46.2

Qu. State its Tm for this sequence: GCGTCACGAAAGTGCCGC (((.(((....))).)))
Ans. 59.6

Qu. State its Tm for this sequence: GATCTTATAAAGATC ((((((...))))))
Ans. 44

Qu. State its Tm for this sequence: GGGGCGACGAAAGTCCCC (((..(((....))))))
Ans. 56

Qu. State its Tm for this sequence: GCGTCGTCACGC ((((....))))
Ans. 51.8

Qu. State its Tm for this sequence: GTCTCCGAAAGGAAGAC ((((((....))).)))
Ans. 52.1

Qu. State its Tm for this sequence: GGAAAGAAATTTCC (((((....)))))
Ans. 29.5

Qu. State its Tm for this sequence: GATCAAGGTTTGATC ((((((...))))))
Ans. 42.4

Qu. State its Tm for this sequence: GAGTCAGGAAACTGGCTC (((.(((....))).)))
Ans. 54.1

Qu. State its Tm for this sequence: GATCATTTGATGATC ((((((...))))))
Ans. 46.6

Qu. State its Tm for this sequence: GACCCACGAAAGTGGTC (((.(((....))))))
Ans. 51.5

Qu. State its Tm for this sequence: GATCATAGATATGATC ((((((....))))))
Ans. 47.3

Qu. State its Tm for this sequence: GCACCGCGAAAGCCGCGC ((.(.((....)).).))
Ans. 41.4

Qu. State its Tm for this sequence: GTAGTCGAAAGACTTTAC ((((((....)))..)))
Ans. 29.5

Qu. State its Tm for this sequence: GATCTCAGACGAGATC ((((((....))))))
Ans. 51.2

Qu. State its Tm for this sequence: GATCTTGTCGAAGATC ((((((....))))))
Ans. 46.4

Qu. State its Tm for this sequence: GCGGACGAAAGTCCACGC ((((((....)))..)))
Ans. 58.9

Qu. State its Tm for this sequence: CGCGGACGAATCCGCG ((((((....))))))
Ans. 68.5

Qu. State its Tm for this sequence: GGTACCGAAAGGTGTACC ((((((....)))..)))
Ans. 46.6

Qu. State its Tm for this sequence: GGTTCAGGAAACTGGATC (.(.(((....))).).)
Ans. 30

Qu. State its Tm for this sequence: GCGAATCGAAAGATCGC (((.(((....))))))
Ans. 57.3

Qu. State its Tm for this sequence: GATCCGACGTCGGATC ((((((....))))))
Ans. 59.9

Qu. State its Tm for this sequence: GCAGTGCGAAAGCTCCGC ((.(.((....)).).))
Ans. 47.9

Qu. State its Tm for this sequence: GATCGACTACTCGATC ((((((....))))))
Ans. 50.7

Qu. State its Tm for this sequence: GATCCAGGAAACCGGATC (((((.(....).)))))
Ans. 45.7

Qu. State its Tm for this sequence: GATCGTATGACGATC ((((((...))))))
Ans. 55.6

Qu. State its Tm for this sequence: GCGGGGCCCGC ((((...))))
Ans. 63.3

Qu. State its Tm for this sequence: GCACACGAAAGTGGTGC ((((((....))).)))
Ans. 59.6

Qu. State its Tm for this sequence: GTGGTCCGAAAGGACAC (((.(((....))))))
Ans. 53.2

Qu. State its Tm for this sequence: GATCAGATCTCTGATC ((((((....))))))
Ans. 50.7

Qu. State its Tm for this sequence: GCTCGCGAAAGCGTTAGC ((((((....)))..)))
Ans. 45.9

Qu. State its Tm for this sequence: GCGCGCCCGAAAGGGCGC (((..(((....))))))
Ans. 68.4

Qu. State its Tm for this sequence: ATTTGGAAACAAAT (((((....)))))
Ans. 34.4

Qu. State its Tm for this sequence: GGAGCCGAAAGGCTTTCC ((((((....)))..)))
Ans. 43.8

Qu. State its Tm for this sequence: GATCGATGGGTCGATC ((((((....))))))
Ans. 57.5
